Ref: PubChem BioAssay

# Protocol details: CREB reporter modulators without forskolin, primary screen, cell-based, PC12, CRE-LacZ reporter, unstimulated (AID 1145)
# Measurement context: no forskolin, luminescence, 4.5 h, higher = more signal, called active from +8 up or from −8 down
Measured attribute: z-score
Response field accepts a number only; no unit should be typed.

> print(dat)
                                   molecule  number
1  O=C1[C@H]2[C@H]3[C@H](O)[C@H](O)CC(=NO[C@@H]4O[C@H](CO)[C@@H](O)[C@H](O)[C@H]4O)[C@@H]3CC[C@H]2C(=O)N1Cc1ccc2c(c1)OCO2   0.245
2  O=C1C2C=CC(C(O)c3ccc([N+](=O)[O-])cc3)N(Nc3ccc([N+](=O)[O-])cc3)C2C(=O)N1c1ccccc1 (configuration not stated)  -0.228
3  Cn1c(=O)n2n(c1=O)[C@H]1[C@H](O)[C@@H]3O[C@@H]3C(=NOC[C@@H](O)COCc3ccco3)[C@H]1CC2   0.248
4  CO[C@@H]1COC(=O)[C@@H]2CCCN2C(=O)[C@@H](C)COC(=O)[C@H](COCc2ccccc2)NC(=O)CC=C[C@H]1C  -0.799
5  CC(C)N1CC=CC23O[C@@H]4C=CCCOC(=O)C4[C@H]2C(=O)N(CCCCCCO)[C@@H]3C1=O (some centres not stated)  -0.488

-- ask What value of measured z-score is listed for "O=C1[C@H]2[C@H]3[C@H](O)[C@H](O)CC(=NO[C@@H]4O[C@H](CO)[C@@H](O)[C@H](O)[C@H]4O)[C@H]3CC[C@H]2C(=O)N1Cc1ccc2c(c1)OCO2" ?
-- reply 0.525

-- ask Item: "C=COC[C@H]1CN2[C@@H](CC[C@@H](C)[C@@H]2c2ccc(Br)cc2)C(=O)O1"
-- reply 1.59

----------
# System: Sonic hedgehog protein (Shh)
# Protocol details: small-molecule binders of Shh protein, primary screen, biochemical, small-molecule microarray, 635/667 nm fluorescence (AID 1151);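 note: Shh protein binding to compounds spotted on small-molecule microarray slides; score combines spot fluorescence intensity with signal-to-noise across triplicate slides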
# Measurement context: small-molecule microarray binding, 635 nm fluorescence; higher = more signal
Measured attribute: composite z-score
// no unit, no text: just the number

Example cases with answers are listed next.
Compound	composite z-score
COC(=O)[C@H](C)NC(=O)CCC1CC(OC(=O)NCc2cccc3ccccc23)CC2(CCCC(COC(=O)NCCc3ccc(Cl)cc3)O2)O1 (some centres not stated)	0.569
CCCNC(=O)OC[C@H]1O[C@H](CCON=C2[C@H]3CCn4c(=O)n(-c5ccccc5)c(=O)n4[C@H]3[C@H](O)[C@@H]3O[C@H]23)C=C[C@@H]1Oc1ccc(OC)cc1	0.572
COC(=O)CC=C[C@@H](C)[C@H](OC)c1ccccc1Br	0.153
CC(=O)O[C@H]1C2=C(C(=O)[C@@H]3O[C@@H]31)[C@H]1C(C)O[C@@H]2[C@@]23C(=O)[C@@H]4O[C@@H]4[C@@H](O)C2=CO[C@H](C)[C@@H]13 (some centres not stated)	0.283

-- ask What value of composite z-score has been recorded for this entry: "O=C1C[C@]2(c3ccc([N+](=O)[O-])cc3)C(=O)N(CCN3CCOCC3)c3cc(CO)ccc3[C@H]2N1CC12CC3CC(CC(C3)C1)C2"
-- reply -0.509

-- ask How about CCCCCN1CC=CC23O[C@@H]4C=CCOC(=O)[C@@H]4[C@H]2C(=O)N(CCCCCCO)[C@@H]3C1=O (some centres not stated) ?
-- reply -0.837

-- ask // next record "COc1ccc(-c2nc3c(c4c2C[C@H](C)OC4)CN(CCC(C)C)CC3)cc1"
-- reply 1.32

----------
# Tested on: PRMT1 (protein arginine N-methyltransferase 1)
# Protocol details: PRMT1 binders on small-molecule microarrays, primary screen, biochemical, small-molecule microarray, 635 nm fluorescence (AID 1088);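 note: binding of Prmt1 protein to compounds spotted on small-molecule microarray slides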
# Measurement context: small-molecule microarray binding, higher = more signal
Classification field: yes = composite z-score at or over 0.4; no = composite z-score under 0.4.

Illustrative cases are given below, each with its answer.
Molecule	Assigned category
CC1(C)OCC(C(O)C2=CCCCC2=O)CO1 (stereo not given)	yes
COc1ccc(O[C@@H]2[C@H](O)CO[C@H]2C=CC#Cc2ccccc2)cc1	no
O=C1C2C=CC(C(O)c3ccc([N+](=O)[O-])cc3)N(Nc3ccc([N+](=O)[O-])cc3)C2C(=O)N1c1ccccc1 (stereo not given)	yes
O=C1[C@H]2[C@H]3[C@H](O)[C@H](O)CC(=NOC[C@@H](O)COCc4ccco4)[C@@H]3CC[C@H]2C(=O)N1c1ccc(F)cc1F	yes

-- ask Please tell me: is the molecule "COC(=O)[C@@]1(Cc2ccc(OC)cc2)[C@H]2c3cc(C(=O)N4CCCC4)n(Cc4cc(F)c(F)c(F)c4)c3C[C@H]2CN1C(=O)c1ccccc1" at or over 0.4 in terms of composite z-score?
-- reply yes

-- ask Try "COc1ccccc1CN1C(=O)c2ccccc2[C@@H](C(=O)NCC(F)(F)F)[C@@H]1c1ccc(CO)cc1" next.
-- reply yes

-- ask Proceed to "C[C@@H]1CC[C@H]2C(=O)O[C@H](COc3ccc(C(C)(C)C)cc3)CN2[C@H]1c1ccc(Br)cc1"
-- reply no

-- ask Also "COCCOC(=O)N1C(=O)[C@@]2(c3cc(C#CCNC(N)=O)ccc31)[C@H](c1ccccc1OCCO)N1[C@H](c3ccccc3)[C@H](c3ccccc3)OC(=O)[C@H]1[C@@H]2C(=O)N1CCN(c2ncccn2)CC1" , if possible.
-- reply yes

----------
# Test system: Inhibin beta A chain (activin A)
# Protocol details: INHBA (activin A) binders on microarrays, primary screen, biochemical, small-molecule microarray, 635 nm fluorescence scan (AID 1107);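 note: mouse activin A protein probed at 4.33 µg/mL on printed slides; score merges bound-protein fluorescence near 667 nm with spot signal-to-noise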
# Measurement context: small-molecule microarray binding, higher = more signal
Param threshold (-0.08) applies to composite z-score; output label 1 when value >= threshold, label 0 when value < threshold.

Consider the worked cases shown below.
> print(dat)
                                   molecule               experimental.system  assigned.category
1  CCOC(=O)NN=C1C[C@@H](O)[C@@H](O)[C@@H]2[C@@H]3C(=O)N(C4CCCCC4)C(=O)[C@@H]3CC[C@H]12  Inhibin beta A chain (activin A)            label 0
2  CCOC(=O)[C@H](Cc1ccccc1)NC(=O)CCC1CC(OC(=O)NCc2ccc3c(c2)OCO3)CC2(CCCC(COC(=O)NCc3ccccc3)O2)O1 (some centres not stated)  Inhibin beta A chain (activin A)            label 0
3  CC(C)[C@H](NC(=O)OC(C)(C)C)[C@@H](O)CC(=O)OC(C)(C)C  Inhibin beta A chain (activin A)            label 1

-- ask Please indicate if the recorded composite z-score for "CCOC(=O)NN=C1C[C@@H](O)[C@@H](O)[C@@H]2[C@@H]3C(=O)N(C4CCCCC4)C(=O)[C@@H]3CC[C@@H]12" meets or exceeds -0.08.
-- reply label 1

-- ask Try "CC(=O)OC[C@H]1O[C@@H](ON=C(C)CCN2CCc3nc(-c4ccccc4)c(-c4ccccc4)cc3C2)[C@H](OC(C)=O)[C@@H](OC(C)=O)[C@@H]1OC(C)=O" next.
-- reply label 0

-- ask Another molecule: "CN(C)CCCNC(=O)[C@@H]1c2ccccc2C(=O)N(Cc2cc(F)cc(C(F)(F)F)c2)[C@H]1c1ccc(CO)cc1"
-- reply label 0

----------
# Protocol details: E. coli growth modulation, two-sided OD650, primary screen, E. coli filamentation project, strain DRC41, 24 h (AID 1093);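 note: MC1000 strain lacking acrAB efflux and sulA so SOS filamentation is blocked; test concentration not given here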
# Measurement context: OD650, 24 h, higher = more signal, called active from +8 up or from −8 down
Measured attribute: z-score
// return a plain number; no unit text

Worked cases, z-score given:
Compound	z-score
CCOC(=O)C[C@H]1[C@H](OC(=O)c2ccc(C(=O)c3ccccc3)cc2)[C@@H](NC(=O)c2ccc(-c3ccccc3)cc2)c2cc(OCCCO)ccc2N1C(=O)c1ccc2ccccc2n1	1.44
C[C@@H](c1ccccc1)N1C(=O)[C@H]2[C@H]3[C@H](O)C=CC(=O)[C@@H]3CC[C@H]2C1=O	0.372
CC(=O)OC[C@H]1O[C@H](CCON=C(C)CCN2CCc3nc(-c4ccccc4)c(-c4ccccc4)cc3C2)C=C[C@@H]1OC(C)=O	0.901
COCCOC(=O)N1C(=O)[C@@]2(c3cc(C#CCNC(N)=O)ccc31)[C@H](c1ccccc1OCCO)N1[C@H](c3ccccc3)[C@H](c3ccccc3)OC(=O)[C@H]1[C@@H]2C(=O)N1CCN(c2ncccn2)CC1	0.961
COC(=O)[C@H](C)NC(=O)CCC1CC(OC(=O)NCc2cccc3ccccc23)CC2(CCCC(COC(=O)NCCc3ccc(Cl)cc3)O2)O1 (stereo partly specified)	0.129

Could you now look at the following compound, please?
-- ask Tell me the measured z-score of "COC(=O)[C@]1(CO)N=C(c2ccc(OCCCO)cc2)O[C@@H]1c1ccccc1N=[N+]=[N-]" , please.
-- reply 0.269
